assay: Single-dose acute toxicity in mice; settings: mouse, in vivo; female CD-1 mice, SC, 3 doses of 50 mg/kg 2 hours apart in 0.5% methylocellulose, followed for 2 days
parameter.measured: MTD at 2 days

query: Can you share its MTD at 2 days? I mean this compound: CC1\C=C/C=C\C=C/C=C\C=C/C(OC2OCC(O)C(O)C2N)C(C)(O)/C=C/C=C\C=C/C=C/C(=O)NC1 (stereo not shown) [NOVO4]
result: > 150 mg/kg
